- assay-method-text: logP of the compounds of table 1
- Format: physicochemical
Please use y for logP under 3 and n for everything else, ties included.

INSERT INTO assay_data (molecule, category_label) VALUES
  ('COC(=O)C(=NOCc1cccc(NC(=O)c2cccc(F)c2)n1)c1ccccc1', 'n');

Please let me know if CN(C)C(=O)C(=NOCc1cccc(NC(=O)c2cccc(F)c2)n1)c1ccccc1 shows logP below 3. n

Please let me know if CN(C)C(=O)C(=NOCc1cccc(NC(=O)OC(C)(C)C)n1)c1ccccc1 shows logP below 3. n

Please let me know if COC(=O)C(=NOCc1cccc(NC(=O)OC(C)(C)C)n1)c1ccccc1 shows logP below 3. n

---

- assay-method-text: logP of the compounds of table 1
- Assay type: physicochemical
- test-settings: read-out: logP
assay-metric: logP
One number for each entry.

Supply measured logP of C#CCCOC(=O)Nc1cccc(CON=C(C#N)c2ccccc2)n1 (single isomer, unassigned) in your reply. 3.67

---

Exercise: for every item that follows, state its recorded logP.
- assay-method-text: logP of the compounds of table 1
- Assay type: physicochemical
Numbers only.

Below: 4 molecules and their reported logP.
INSERT INTO assay_data (molecule, observed_value) VALUES
  ('COC(=O)C(=NOCc1cccc(NC(=O)c2cccs2)n1)c1ccccc1 [compound 43]', 3.67),
  ('CNC(=O)C(=NOCc1cccc(NC(=O)c2cccc(F)c2)n1)c1ccccc1 [compound 78]', 2.84),
  ('COC(=O)C(=NOCc1cccc(NC(=O)C(F)(F)Oc2ccccc2)n1)c1ccccc1 [compound 38]', 4.41),
  ('COC(=O)C(=NOCc1cccc(NCCCc2ccccc2)n1)c1ccccc1 [compound 41]', 2.60);

Supply measured logP of CCCCCCOC(=O)Nc1cccc(CON=C(C(=O)OC)c2ccccc2)n1 [compound 46] in your reply. 5.14

---

- assay-method-text: logP of the compounds of table 1
- Format: physicochemical
Exercise: for every item that follows, state its recorded logP.

INSERT INTO assay_data (compound, observed_value) VALUES
  ('C#CCCOC(=O)Nc1cccc(CON=C(C(=N)N(C)N)c2ccccc2)n1 [compound 308]', 1.77);

Look at each compound and report its logP.
1. CCON(C)C(=O)C(=NOCc1csc(NC(=O)OCCOc2ccccc2)n1)c1ccccc1 [compound 209]
2. C#CCCCCOC(=O)Nc1cccc(CON=C(C(=O)N(C)OCC)c2ccccc2)n1 [compound 202]
3. CCON(C)C(=O)C(=NOCc1cccc(NC(=O)Cc2ccc(OC)cc2)n1)c1ccccc1 [compound 206]
4. CCON(C)C(=O)C(=NOCc1cccc(NC(=O)OCCOc2ccccc2)n1)c1ccccc1 [compound 207]
5. C#CCCOC(=O)Nc1cccc(CON=C(C(=N)SC)c2ccccc2)n1 [compound 309]
6. C#CCCOC(=O)Nc1cccc(CON=C(C(N)=S)c2ccccc2)n1 [compound 310]
7. CCON(C)C(=O)C(=NOCc1csc(NC(=O)Cc2ccc(OC)cc2)n1)c1ccccc1 [compound 210]

1: 3.62; 2: 3.71; 3: 3.37; 4: 3.89; 5: 3.02; 6: 2.75; 7: 3.23

Look at each compound and report its logP.
1. CCON(C)C(=O)C(=NOCc1cccc(NC(=O)C(C)Oc2ccccc2)n1)c1ccccc1 (centres unmarked) [compound 205]
2. C#CCCCCOC(=O)Nc1nc(CON=C(C(=O)N(C)OCC)c2ccccc2)cs1 [compound 211]
3. CCON(C)C(=O)C(=NOCc1csc(N)n1)c1ccccc1 [compound 208]

1: 3.94; 2: 3.44; 3: 1.35

Look at each compound and report its logP.
1. CCON(C)C(=O)C(=NOCc1cccc(NC(=O)OC(C)(C)C)n1)c1ccccc1 [compound 201]
2. CCON(C)C(=O)C(=NOCc1cccc(NC(=O)C2COc3ccccc3O2)n1)c1ccccc1 (centres unmarked) [compound 203]
3. CCON(C)C(=O)C(=NOCc1cccc(NC(=O)c2ccc(Cl)cc2)n1)c1ccccc1 [compound 204]

[2.38, 3.83, 4.01]

From: patent US9000012B2
